Data origin, for the record: patent US20120045393A1

Test system: LHRH binding sites on human ovarian cancer cells (EFO-27);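 further: Cell-associated radioactivity on confluent EFO-27 monolayers in 96-well plates, measured by microplate scintillation counting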
Residues, ends and D or L forms follow the SMILES beside them.
measurement kind: EC50 (µM)
Give the value, in units of µM, as a plain number.

State its EC50: N=C(N)NCCC[C@H](NC(=O)[C@@H](Cc1ccc2ccccc2c1)NC(=O)CN1CCN(CC(=O)O)CCN(CC(=O)O)CCN(CC(=O)O)CC1)C(=O)N[C@@H](Cc1c[nH]c2ccccc12)C(=O)N[C@@H](CO)C(=O)N[C@@H](Cc1c[nH]cn1)C(=O)N[C@H](CCCNC(=N)N)C(=O)N[C@@H](Cc1c[nH]c2ccccc12)C(=O)O [BRU-3046] (HELM PEPTIDE1{[O=C(O)CN1CCN(CC(=O)O)CCN(CC(=O)[*:2])CCN(CC(=O)O)CC1].[O=C([C@@H](Cc1ccc2ccccc2c1)N[*:1])[*:2]].R.W.S.H.[dR].W}$$$$V2.0)
15.8
